assay system: T1, human [1-305]-mouse chimeric EL (human; mouse, UniProt Q9WVG5 306-500)
T1 construct: Heparin extract, captured or detected by an anti-C2-tag antibody; also called human-mouse chimeric EL
T1 sequence: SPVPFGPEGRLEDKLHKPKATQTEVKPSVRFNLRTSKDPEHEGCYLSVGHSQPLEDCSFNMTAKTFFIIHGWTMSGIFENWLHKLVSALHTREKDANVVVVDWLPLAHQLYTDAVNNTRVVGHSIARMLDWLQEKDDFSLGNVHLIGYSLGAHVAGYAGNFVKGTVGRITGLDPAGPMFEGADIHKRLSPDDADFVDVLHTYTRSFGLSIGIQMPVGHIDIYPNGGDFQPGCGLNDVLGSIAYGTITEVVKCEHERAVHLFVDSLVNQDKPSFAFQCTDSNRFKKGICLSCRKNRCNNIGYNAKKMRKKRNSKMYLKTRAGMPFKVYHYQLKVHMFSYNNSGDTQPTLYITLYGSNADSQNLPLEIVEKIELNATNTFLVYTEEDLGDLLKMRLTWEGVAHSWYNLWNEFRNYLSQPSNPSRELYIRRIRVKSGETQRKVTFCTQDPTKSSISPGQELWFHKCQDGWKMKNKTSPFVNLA
run description: Biacore; EL captured by anti-C2-tag Ab; bivalent fit
Experimental: The binding affinities of anti-EL antibodies were measured using Biacore. […] Then, anti-EL antibodies were added and the binding affinities were calculated by bivalent fitting of BIAevaluation software.
I'd appreciate it if you could supply pKd values for the items below.
Give bare numbers, as −log10 of the molar value.

Illustrative cases are given below, each with its answer.
INSERT INTO measurements (binder, result_number) VALUES
  ('55A1 (antibody, mouse IgG2a, V domains shown, mouse IgG2a from hybridoma; also called 55A1 (mouse mAb)) VH: QIHLVQSGPELKKPGETVKISCKASGYTFTNYGMNWVKQAPGKGLKWMGWINTYSGVPTYAGDFKGRFAFSLETSASTAYLQINNLKNEDTATYFCARRGYYGRRYFDVWGTGTTVTVSS VL: DIVLTQSPASLAVSLGQRATISCKASQSVDYDVDSYMHWYQQKPGQPPKLLIYAASNLASGIPARFSGGGSGTDFTLNIHPVEEEDVATYYCQQTIEDPPTFGGGTKLEIK', 9.14),
  ('13B3 (antibody, mouse IgG2a, V domains shown, mouse IgG2a from hybridoma; also called 13B3 (mouse mAb)) VH: EVQLQQSGPELLKPGASVKISCKASGYTFTEYTMHWVKQSHGKSLEWIGSINPYYGGTSYNEKFKDKATLTVDKSSNTAYMEFRSLTSEDCAVYYCARYGNYVGYFDYWGQGTTLTVSS VL: ENVLTQSPAIMSASLGEKVTMSCRASSSVHYMYWYQQKSDASPKLWIYYTSNLAPGVPDRFSGSGSGNSYSLTISSMEGEDAATYYCQQFTSSPYTFGGGTKLEIK', 9.04);

Would you mind giving pKd for every binder in the list below?
1. 7D4 (antibody, mouse IgG1, V domains shown, mouse IgG1 from hybridoma) VH: QIQLVQSGPELKKPGETVKISCKASGYTFTNYGMNWVKQAPGKDLKWMGWINTYSGVPTYADDFKGRFAFSLETSASTAYLQINNLKNEDTATYFCARFSYYGRHYFDYWGQGTTLTVSS VL: DIVLTQSPASLAVSLGQRATISCKASQSVDYDGDSYMNWYQQKPGQPPQLLIYAASNLGSGIPARFSGSGSGTDFTLNIHPVEEEDAATYYCHQSTDDPPWTFGGGTKLEIK
2. 16E7 (antibody, mouse IgG1, V domains shown, mouse IgG1 from hybridoma) VH: EVKLVESGGGLVQPGGSLKLSCAASGFTFSSYTMSWVRQTPEKRLELVAEISFTRSRAFYPDTVKGRFTISRDNAKNTLYLQMSSLKSEDTAMYYCARLGGNNYDYWYFDVWGTGTTVTVSS VL: DIVLTQSPTSLAVSLGQRATISCRASESVEYYGTSLMQWYQQKPGQRPKLLIYAASNVESGVPARFSGSGSGTDFSLNIHPVEEDDIAMYFCQQSWKVPFTFGSGTKLEIK
3. 53A11 (antibody, mouse IgG2a, V domains shown, mouse IgG2a from hybridoma; also called 53A11 (mouse mAb)) VH: EVQLQQSGPELLKPGASVKISCKASGYTFTDYTMHWVKQSHGKSLEWIGGINPYYGGTTYNEKFKDKATLTVDKSSSTAYMELRSLTSEDSAVYYCAKGDYYGGSYNYWGQGTTLTVSS VL: DIVLTQSLATLSVTPGDSVSLSCRASQDISNSLHWYQQKSHESPRLLIKYASQSISGIPSRFSGSGSGTDFTLSINSVETEDFGMYFCQQSNSWPYTFGGGTKLEIK
4. 16B3 (antibody, mouse IgG2a, V domains shown, mouse IgG2a from hybridoma; also called 16B3 (mouse mAb)) VH: DVKLVESGGGLVQPGGSLKLSCTASGFTFSGYTMSWVRQTPEKRLELVAEISFARDRAFYPDTVKGRFTISRDNAKNTLYLQMSSLKSEDTAMYYCTRLGGRNHDYWYFDVWGTGTTVTVSS VL: DIVLTQSPTSLAVSPGQRATISCRASESVEYYGTSLMQWYQQKPGQRPQLLIYAASNVESGVPARFSGSGSGTDFSLNIHPVEEDDIAVYFCQQSWKVPFTFGSGTKLEIK

[9.01, 8.96, 9.20, 8.43]

Provenance of the data: patent US20200071424A1
